Target: Glucose transporter (Leishmania mexicana) (UniProt O61059)
Assay: ST_JUDE_LEISH: Cytotoxicity at 2uM final concentration against transgenic Leishmania Mexicana promastigotes LmGT2 that are glucose transport deficient and complemented with the L. Mexicana glucose transporter 2. Activity is measured by DNA content using SYBR green in vitro
Format: functional
Each record here notes measured inhibition.
The response must be a number in % with no trailing unit.

O=C(Nc1ccc(Cl)cc1)c1ccc(CN2CCCN(Cc3ccsc3)CC2)cc1 :: 7.21
CC(N)(Cc1ccc(O)cc1)c1nnn[nH]1 (centres undefined) :: -0.23
Cc1[nH]c(C)c(-c2ccc(OCc3cc(C(F)(F)F)cc(C(F)(F)F)c3)nc2)c(=O)c1Br :: 2.99
CCN(CC)CCN(Cc1ccc(-c2ccc(C(F)(F)F)cc2)cc1)C(=O)Cn1nc(-c2ccc(C(F)(F)F)cc2)ccc1=O :: 2.83
CN1CCC(NCc2cccc(-c3ccc(S(=O)(=O)NCCN4CCCC4)c(F)c3)c2)CC1 :: -0.34
O=C(Nc1ccccc1)Nc1cccc(-c2cc(CNCCc3ccccc3)sc2-c2ccncc2)c1 :: 4.67
Cc1nn(-c2ccccc2)c2c1C(c1ccc(C(C)C)cc1)N1C(=N2)N(Cc2ccccc2)c2ccccc21 (centres undefined) :: 1.85
CCN(CC)C(C)(C)CN(Cc1ccc(-c2ccc(C(F)(F)F)cc2)cc1)C(=O)Cn1c(CCc2cccc(F)c2F)nc(=O)c2ccccc21 :: 5.98

Could you now look at the following molecule, please?
inhibition measured on Clc1cc(Nc2ccnc3ccc(Br)cc23)ccc1Oc1ccc2ccccc2c1Cl = 1.22
